Each record here notes measured MIC.
System: Vibrio cholerae
assay-details: Antimicrobial activity against Vibrio cholerae after 24 hrs by agar well diffusion assay
Format: functional
measurement-label: MIC (µg/mL)

INSERT INTO assay_data (molecule_smiles, reading) VALUES
  ('O=S1(=O)c2ccc(cc2)Cn2cc[n+](c2)Cc2ccc(cc2)S(=O)(=O)c2ccc(cc2)C[n+]2ccn(c2)Cc2ccc1cc2.[Br-].[Br-]', 10),
  ('O=S1(=O)c2ccc(cc2)Cn2cc[n+](c2)Cc2ccc(cc2)-c2cccc(c2)-c2ccc(cc2)C[n+]2ccn(c2)Cc2ccc1cc2.[Br-].[Br-]', 25),
  ('COc1cc2c(OC)cc1C[n+]1ccn(c1)Cc1ccc(cc1)S(=O)(=O)c1ccc(cc1)Cn1cc[n+](c1)C2.[Br-].[Br-]', 40),
  ('O=C1c2ccc(cc2)C[n+]2ccn(c2)Cc2ccc(cc2)S(=O)(=O)c2ccc(cc2)Cn2cc[n+](c2)Cc2ccc(cc2)C(=O)c2cccc1c2.[Br-].[Br-]', 30),
  ('O=C1c2ccc(cc2)C[n+]2ccn(c2)Cc2ccc(cc2)S(=O)(=O)c2ccc(cc2)Cn2cc[n+](c2)Cc2ccc1cc2.[Br-].[Br-]', 5),
  ('O=S1(=O)c2ccc(cc2)Cn2cc[n+](c2)Cc2cccc(c2)C[n+]2ccn(c2)Cc2ccc1cc2.[Br-].[Br-]', 35);

###

Test system: Bacillus subtilis
assay-details: Antimicrobial activity against Bacillus subtilis after 24 hrs by agar well diffusion assay
Type: functional
Each record here notes measured MIC.
measurement-label: MIC (mg/L)

INSERT INTO assay_data (molecule_smiles, measurement_units, reading) VALUES
  ('O=S1(=O)c2ccc(cc2)Cn2cc[n+](c2)Cc2ccccc2C[n+]2ccn(c2)Cc2ccc1cc2.[Br-].[Br-]', 'mg/L', 40),
  ('O=C1c2ccc(cc2)C[n+]2ccn(c2)Cc2ccc(cc2)S(=O)(=O)c2ccc(cc2)Cn2cc[n+](c2)Cc2ccc1cc2.[Br-].[Br-]', 'mg/L', 15),
  ('O=S1(=O)c2ccc(cc2)Cn2cc[n+](c2)Cc2cccc(c2)C[n+]2ccn(c2)Cc2ccc1cc2.[Br-].[Br-]', 'mg/L', 20),
  ('O=S1(=O)c2ccc(cc2)Cn2cc[n+](c2)Cc2ccc(cc2)C[n+]2ccn(c2)Cc2ccc1cc2.[Br-].[Br-]', 'mg/L', 30),
  ('O=C(O)c1cn(C2CC2)c2cc(N3CCNCC3)c(F)cc2c1=O', 'mg/L', 5),
  ('O=S1(=O)c2ccc(cc2)Cn2cc[n+](c2)Cc2ccc(cc2)S(=O)(=O)c2ccc(cc2)C[n+]2ccn(c2)Cc2ccc1cc2.[Br-].[Br-]', 'mg/L', 10),
  ('O=C1c2ccc(cc2)C[n+]2ccn(c2)Cc2ccc(cc2)S(=O)(=O)c2ccc(cc2)Cn2cc[n+](c2)Cc2ccc(cc2)C(=O)c2cccc1c2.[Br-].[Br-]', 'mg/L', 35);
